Target: human TLR8 (Homo sapiens, UniProt Q9NR97)
Sequence (Q9NR97 27-1041): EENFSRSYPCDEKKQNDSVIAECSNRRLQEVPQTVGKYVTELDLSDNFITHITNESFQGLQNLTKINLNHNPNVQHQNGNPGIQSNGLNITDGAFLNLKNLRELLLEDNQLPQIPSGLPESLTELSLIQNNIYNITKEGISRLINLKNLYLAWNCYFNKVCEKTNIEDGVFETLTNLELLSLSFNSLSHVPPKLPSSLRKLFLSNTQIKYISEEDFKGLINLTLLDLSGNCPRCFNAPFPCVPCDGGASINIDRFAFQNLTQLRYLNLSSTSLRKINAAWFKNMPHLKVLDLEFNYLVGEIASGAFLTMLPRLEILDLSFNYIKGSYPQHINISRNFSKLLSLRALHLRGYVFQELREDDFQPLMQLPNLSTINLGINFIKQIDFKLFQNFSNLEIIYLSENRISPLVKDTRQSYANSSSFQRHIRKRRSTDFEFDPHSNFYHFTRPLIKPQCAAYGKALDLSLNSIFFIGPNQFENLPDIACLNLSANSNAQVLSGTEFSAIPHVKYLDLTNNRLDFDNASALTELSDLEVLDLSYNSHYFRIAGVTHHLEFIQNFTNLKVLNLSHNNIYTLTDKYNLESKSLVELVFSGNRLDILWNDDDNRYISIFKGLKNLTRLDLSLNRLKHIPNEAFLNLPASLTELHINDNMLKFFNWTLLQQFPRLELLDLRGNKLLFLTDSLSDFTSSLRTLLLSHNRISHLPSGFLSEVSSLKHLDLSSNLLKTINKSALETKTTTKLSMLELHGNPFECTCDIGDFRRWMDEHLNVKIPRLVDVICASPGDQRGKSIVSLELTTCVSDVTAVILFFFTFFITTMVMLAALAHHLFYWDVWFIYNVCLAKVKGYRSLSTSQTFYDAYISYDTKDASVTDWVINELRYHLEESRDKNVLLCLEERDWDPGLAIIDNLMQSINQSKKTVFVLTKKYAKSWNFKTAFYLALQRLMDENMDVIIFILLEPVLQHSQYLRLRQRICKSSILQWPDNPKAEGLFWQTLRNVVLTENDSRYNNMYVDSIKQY
Experiment: HEK293-Blue-hTLR-8 cells assay (SEAP reporter, R848 stimulation)
Settings: HEK293-Blue-hTLR8 cells, R848, 20 hrs; read-out: HEK/hTLR8 IC50
Experimental: HEK293-Blue-hTLR-8 Cells Assay: A stable HEK293-Blue-hTLR-8 cell line was purchased from InvivoGen (Cat. #: hkb-ht1r8, San Diego, Calif., USA). […] The cell culture supernatant SEAP reporter activity was determined using QUANTI-Blue™ kit (Cat. #: rep-qb1, Invivogen, San Diego, Ca, USA) at a wavelength of 640 nm, a detection medium that turns purple or blue in the presence of alkaline phosphatase. […]
pIC50: −log10 of the molar value.
observable: pIC50

P = C[C@@H]1CN(c2ccc(C#N)c3ncccc23)C[C@H](CN2CCN(c3cccc(NC4CNC4)n3)CC2)O1
Q = [2H]c1ccc2c(N3C[C@H](CN4CC(c5ccc(N6C[C@H](OC)[C@@H](N)C6)cc5)C4)O[C@H](C)C3)ccc(C#N)c2n1
R = Cc1cc(N2CCN(C[C@H]3CN(c4ccc(C#N)c5nccnc45)C[C@@H](C)O3)CC2)nc(N2CC(N)C2)n1
(Q) Please produce an ascending ranking of these molecules based on pIC50. API: response body holds the labels in the requested order.
(A) Q, P, R
(Q: 7.60, P: 7.96, R: 9.00)

----------
Target: human TLR7 (Homo sapiens, UniProt Q9NYK1)
Sequence (Q9NYK1 27-1049): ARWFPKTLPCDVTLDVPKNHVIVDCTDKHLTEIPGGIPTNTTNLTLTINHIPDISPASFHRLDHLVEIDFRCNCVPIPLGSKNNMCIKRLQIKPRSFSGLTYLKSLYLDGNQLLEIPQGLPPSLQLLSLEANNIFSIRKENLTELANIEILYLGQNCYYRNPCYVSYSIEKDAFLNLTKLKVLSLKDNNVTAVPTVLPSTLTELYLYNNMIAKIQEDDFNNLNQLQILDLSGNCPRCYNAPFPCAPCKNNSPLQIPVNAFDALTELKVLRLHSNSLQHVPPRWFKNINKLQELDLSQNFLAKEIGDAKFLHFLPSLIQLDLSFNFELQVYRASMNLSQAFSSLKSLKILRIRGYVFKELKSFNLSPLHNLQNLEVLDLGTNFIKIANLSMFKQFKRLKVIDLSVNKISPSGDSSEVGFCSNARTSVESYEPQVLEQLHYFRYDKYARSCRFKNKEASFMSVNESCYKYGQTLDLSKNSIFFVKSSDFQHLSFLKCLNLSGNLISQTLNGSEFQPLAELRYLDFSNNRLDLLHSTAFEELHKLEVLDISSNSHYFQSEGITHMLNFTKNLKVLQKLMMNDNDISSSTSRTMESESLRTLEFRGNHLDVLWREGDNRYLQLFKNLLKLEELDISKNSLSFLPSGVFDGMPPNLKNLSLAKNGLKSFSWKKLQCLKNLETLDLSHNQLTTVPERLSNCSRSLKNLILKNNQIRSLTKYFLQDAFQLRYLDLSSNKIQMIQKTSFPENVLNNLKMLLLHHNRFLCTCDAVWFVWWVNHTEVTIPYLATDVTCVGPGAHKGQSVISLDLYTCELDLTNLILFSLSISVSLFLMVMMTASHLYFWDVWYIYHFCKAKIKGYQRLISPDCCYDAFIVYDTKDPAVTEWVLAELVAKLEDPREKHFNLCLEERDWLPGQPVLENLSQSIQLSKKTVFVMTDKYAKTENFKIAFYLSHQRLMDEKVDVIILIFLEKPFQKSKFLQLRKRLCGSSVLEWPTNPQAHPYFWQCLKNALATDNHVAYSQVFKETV
Test: HEK293-Blue-hTLR-7 cells assay (SEAP reporter, R848 stimulation)
Conditions: HEK293-Blue-hTLR7 cells, R848, 20 hrs; read-out: HEK/hTLR7 IC50
observable: IC50 (µM)

Study these solved cases before continuing.
> print(dat)
                                   compound  readout.unit  endpoint.value
1  CO[C@H]1CN(c2cc(C)nc(N3CCN(C[C@H]4CN(c5ccc(C#N)c6nccnc56)C[C@@H](C)O4)CC3)n2)C[C@H]1N            µM           0.005
2  C[C@@H]1CN(c2ccc(C#N)c3ncccc23)C[C@H](CN2CCN(c3ccnc(NC4CNC4)n3)CC2)O1            µM           0.011
3  C[C@@H]1CN(c2ccc(C#N)c3ncccc23)C[C@H](CN2CCN(c3ccnc(N4CCC(N)CC4)n3)CC2)O1            µM           0.015

1 = C[C@@H]1CN(c2ccc(C#N)c3nccnc23)C[C@H](CN2CCN(c3ccnc(N4C[C@H](N)[C@@H](F)C4)n3)CC2)O1
2 = [2H]c1ccc2c(N3C[C@H](CN4CC(c5ccc(N6C[C@H](OC)[C@@H](N)C6)cc5)C4)O[C@H](C)C3)ccc(C#N)c2n1
(Q) # query: argmin of IC50 over 1 and 2 Please reply using the label of the selected record.
(A) 1
(1: 0.008 µM, 2: 0.022 µM)

I = [2H]c1ccc2c(N3C[C@H](CN4CC(c5ccc(N6CC(C)(N)C6)cc5)C4)O[C@H](C)C3)ccc(C#N)c2n1
II = C[C@@H]1CN(c2ccc(C#N)n3ncc(F)c23)C[C@H](CN2CCN(c3ccc(N[C@H]4CNC[C@H]4F)nc3)CC2)O1
III = Cc1ccc(N2C[C@H](CN3CCN(c4ccnc(N5CC6(CNCCO6)C5)n4)CC3)O[C@H](C)C2)c2nccnc12
(Q) Please give the order of these compounds when sorted by IC50, largest value leading. API: response body holds the labels in the requested order.
(A) III, II, I

I = C[C@@H]1CN(c2ccc(C#N)n3ncc(F)c23)C[C@H](CN2CC(c3ccc(N4CC(C)(N)C4)nc3)C2)O1
II = CO[C@@H]1CN(c2nccc(N3CCN(C[C@H]4CN(c5ccc(C#N)c6nccnc56)C[C@@H](C)O4)CC3)n2)C[C@H]1N
(Q) I'd appreciate it if you could identify which of I and II has the greater IC50. Please reply using the label of the selected record.
(A) II

A = Cc1cc(N2CCN(C[C@H]3CN(c4ccc(C(F)(F)F)c5nccnc45)C[C@@H](C)O3)CC2)nc(N2CCNCC2)n1
B = [2H]c1ccc2c(N3C[C@H](CN4CCN(c5ccc(N6CC7(CN(C)C7)C6)nc5)CC4)O[C@H](C)C3)ccc(C#N)c2n1
C = [2H]c1ccc2c(N3C[C@H](CN4CC(c5ccc(N6CC(C)(N)C6)nc5)C4)O[C@H](C)C3)ccc(C#N)c2n1
(Q) Please give the order of these compounds when sorted by IC50, largest value leading. API: response body holds the labels in the requested order.
(A) A, B, C
(A: 0.015 µM, B: 0.008 µM, C: 0.005 µM)

I = C[C@@H]1CN(c2ccc(C#N)c3ncccc23)C[C@H](CN2CCN(c3ccnc(N4CCN(C)CC4)n3)CC2)O1
II = Cc1cc(N2CCN(C[C@H]3CN(c4ccc(C#N)c5ncccc45)C[C@@H](C)O3)CC2)nc(N2C[C@@H]3COC[C@@H](C2)N3)n1
III = C[C@@H]1CN(c2ccc(C#N)c3ncccc23)C[C@H](CN2CCN(c3ccc(CN)cc3)CC2)O1
IV = Cc1cc(N2CCN(C[C@H]3CN(c4ccc(C#N)c5ncccc45)C[C@@H](C)O3)CC2)nc(N2CC(N)CC(F)(F)C2)n1 (some centres unmarked)
(Q) Please give the order of these compounds when sorted by IC50, largest value leading. API: response body holds the labels in the requested order.
(A) IV, III, II, I

1 = COc1cnc(N2CCNCC2)nc1N1CCN(C[C@H]2CN(c3ccc(C#N)c4ncccc34)C[C@@H](C)O2)CC1
2 = C[C@@H]1CN(c2ccc(C#N)c3ncccc23)C[C@H](CN2CCN(c3ccnc(N4C[C@H](N)[C@@H](F)C4)n3)CC2)O1
(Q) # query: argmin of IC50 over 1 and 2 Please reply using the label of the selected record.
(A) 1
(1: 0.009 µM, 2: 0.014 µM)

a = CO[C@H]1CN(c2nc(C)cc(N3CCN(C[C@H]4CN(c5ccc(C#N)c6ncccc56)C[C@@H](C)O4)CC3)n2)C[C@H]1N
b = C[C@@H]1CN(c2ccc(C#N)c3nccnc23)C[C@H](CN2CCN(c3ccnc(N4CC[C@H](N)[C@H](F)C4)n3)CC2)O1
(Q) # query: argmin of IC50 over a and b Please reply using the label of the selected record.
(A) b
(b: 0.003 µM, a: 0.011 µM)

1 = COc1cc(N2CCN(C[C@H]3CN(c4ccc(C#N)c5ncccc45)C[C@@H](C)O3)CC2)nc(N2CCNCC2)n1
2 = C[C@@H]1CN(c2ccc(C#N)c3ncccc23)C[C@H](CN2CCN(c3cccc(N4CCN(C)CC4)n3)CC2)O1
3 = Cc1cc(N2CC(C)(N)C2)cnc1N1CCN(C[C@H]2CN(c3ccc(C#N)n4ncc(F)c34)C[C@@H](C)O2)CC1
4 = C[C@@H]1CN(c2ccc(C#N)n3ncc(F)c23)C[C@H](CN2CCN(c3ccc(N4CC5(CNCCO5)C4)nc3)CC2)O1
(Q) Please give the order of these compounds when sorted by IC50, largest value leading. API: response body holds the labels in the requested order.
(A) 3, 2, 1, 4
(3: 0.056 µM, 2: 0.024 µM, 1: 0.013 µM, 4: 0.009 µM)
